Reference source for all entries: PubChem BioAssay AID1159580

- method.description: chemical genetic growth profiling, strain panel (AID 1159580);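 further: tested at 20 µM; growth read once vehicle control cultures reached saturation at 30 °C; 1 = growth at the plate median or of vehicle wells; lower values mean less growth of the strain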
- condition.details: S. cerevisiae deletion strains, growth OD, locus YEL037C, strain rad23
About 2,000 (36%) of roughly 5,500 compounds were called active. About 18% were inconclusive and are not listed. No stated cut-off is given here; in the data, active means normalized growth mostly below about 0.91 (no sharp cut-off); inconclusive means no clear call, values can overlap the other calls; inactive means mostly above about 0.92. This is one part of the list.
Outcomes: 1 (active), 0 (inactive)

compound	qualitative.label
O=C(O)c1ccccc1O	0
CCCCC(=O)O[C@]1(C(=O)CO)[C@@H](C)CC2C3CCC4=CC(=O)C=C[C@]4(C)[C@@]3(F)C(O)C[C@@]21C (some centres undefined)	0
O=C(/C=C(\O)c1ccccc1)c1ccccc1O	1
CCC(=O)O[C@]1(C(=O)CCl)[C@@H](C)CC2C3CCC4=CC(=O)C=C[C@]4(C)[C@@]3(F)[C@@H](O)C[C@@]21C (some centres undefined)	0
CC1(C)S[C@@H]2C(N3C(=O)[C@@H](c4ccccc4)NC3(C)C)C(=O)N2[C@H]1C(=O)O (some centres undefined)	0
CC(C)=CC1C(CO)C1(C)C (centres undefined)	0
CC(=O)N1CCN(c2ccc(OCC3CO[C@](Cn4ccnc4)(c4ccc(Cl)cc4Cl)O3)cc2)CC1 (some centres undefined)	1
CC(C)c1cccc(O)c(=O)c1	1
CCC(=O)OCC(=O)C1(OC(=O)CC)C(C)CC2C3C(Cl)CC4=CC(=O)C=CC4(C)C3C(O)CC21C (centres undefined)	0
C[C@H]1[C@H](C)CC[C@]2(C(=O)O)CC[C@]3(C)C(=CCC4[C@@]5(C)C[C@@H](O)[C@H](O)[C@@](C)(CO)C5[C@H](O)C[C@]43C)[C@H]12 (some centres undefined)	0
CC(C)(C)NCC(O)COc1cccc2c1CCCC2=O (centres undefined)	0
CCC(=O)OCC(=O)[C@@]1(OC(=O)CC)[C@@H](C)CC2C3CCC4=CC(=O)C=C[C@]4(C)C3(F)[C@@H](O)C[C@@]21C (some centres undefined)	0
CC1=C2C(O)C(=O)OC3CC4C(C)(C)C(=O)C=C[C@]4(C)C(CC1)[C@]23C (some centres undefined)	0
CNC[C@H](O)c1cccc(O)c1	0
CN[C@H]1CC[C@@H](c2ccc(Cl)c(Cl)c2)c2ccccc21	0
CC(C)c1cccc(C(C)C)c1O	0
COc1c(O)cc2c(c1O)[C@H]1O[C@H](CO)[C@@H](O)[C@H](O)[C@@H]1OC2=O	0
NS(=O)(=O)c1cc2c(cc1C(F)(F)F)NC(Cc1ccccc1)NS2(=O)=O (centres undefined)	0
C/C=C/CC(C)C(O)C1C(=O)NC(CC)C(=O)N(C)CC(=O)N(C)C(CC(C)C)C(=O)NC(C(C)C)C(=O)N(C)C(CC(C)C)C(=O)NC(C)C(=O)NC(C)C(=O)N(C)C(CC(C)C)C(=O)N(C)C(CC(C)C)C(=O)N(C)C(C(C)C)C(=O)N1C (centres undefined)	0

====

- method.description: chemical genetic growth profiling, strain panel (AID 1159580)
- condition.details: S. cerevisiae deletion strains, growth OD, locus YCL029C, strain bik1, active compounds read low
Out of some 5,500 compounds screened, about 2,000 (36%) were called active. Roughly 18% stayed inconclusive and do not appear here. The list shows a part of the results.
measurement.type: normalized growth

> print(dat)
                                   compound  measured.number
1  CC(=O)OCC(=O)[C@@]1(O)CCC2C3C[C@H](C)C4=CC(=O)C=CC4(C)C3[C@@H](O)CC21C (stereo not given in full)             1.01
2  CC[C@H]1CN2CCC1C[C@@H]2[C@@H](O)c1ccnc2ccc(OC)cc12 (stereo not given in full)             1.01
3  CC1(C)S[C@@H]2[C@H](NC(=O)C(C(=O)O)c3ccccc3)C(=O)N2[C@H]1C(=O)O (stereo not given in full)             0.99
4  CC1=CC(=O)C2C(C)(C)CCC[C@]2(C)[C@@]1(O)CCc1ccoc1 (stereo not given in full)            0.997
5                  CC1=CC(=O)C(C(C)C)=CC1=O            0.926

====

- method.description: chemical genetic growth profiling, strain panel (AID 1159580);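 further: tested at 20 µM; growth read once vehicle control cultures reached saturation at 30 °C; 1 = growth at the plate median or of vehicle wells; lower values mean less growth of the strain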
- condition.details: S. cerevisiae deletion strains, growth OD, locus YDL028C, strain MPS1, active compounds read low
The campaign covered roughly 5,500 compounds. About 2,000 (36%) were called active. Another 18% or so got no clear call; they are omitted. Some of the results follow.
# normalized growth per record follows
measurement.type: normalized growth

> print(dat)
                            structure.smiles   measurement.type  measured.number
 1  Cc1ccc(Sc2ncccc2NS(=O)(=O)c2ccc(Cl)cc2)cc1  normalized growth            0.932
 2         C/C(=N/NC(N)=S)c1csc(-c2ccccc2)n1  normalized growth            0.948
 3             CN(C)/C=C1\CSc2ccc(Cl)cc2C1=O  normalized growth            0.953
 4  N#C/C(N=Cc1cc(Cl)cc(Cl)c1O)=C(\C#N)N=Cc1cc(Cl)cc(Cl)c1O  normalized growth            0.915
 5  O=S(=O)(Nc1ccccc1Sc1c(Cl)cncc1Cl)c1ccc(Cl)cc1  normalized growth            0.995
 6            CCn1nc(C)cc1C(=O)Sc1cccc(Br)c1  normalized growth            0.924
 7               ONC(=Nc1ccccc1Cl)c1ccccc1Cl  normalized growth            0.985
 8  N#Cc1ccc2[nH]cc(CCN(Cc3ccccc3)Cc3ccccc3)c2c1  normalized growth            0.977
 9  Cc1ccc(OS(=O)(=O)c2c(Cl)sc(Cl)c2Br)c([N+](=O)[O-])n1  normalized growth            0.972
10  O=C(Nc1ccccc1C(=O)O)OCC1c2ccccc2-c2ccccc21  normalized growth            0.987
11         O=C1Nc2ccccc2/C1=C\c1cccc2ccccc12  normalized growth            0.972

====

- method.description: chemical genetic growth profiling, strain panel (AID 1159580);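 further: tested at 20 µM; growth read once vehicle control cultures reached saturation at 30 °C; 1 = growth at the plate median or of vehicle wells; lower values mean less growth of the strain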
- condition.details: S. cerevisiae deletion strains, growth OD, locus YNL322C, strain KRE1 (second series)
Out of some 5,500 compounds screened, about 2,000 (36%) were called active. Inconclusive results (about 18%) are left out. Cut-off read from the data, not from the text of the source: active = normalized growth mostly below about 0.91 (no sharp cut-off); inconclusive = no clear call, values can overlap the other calls; inactive = mostly above about 0.92. The list shows a part of the results.
Outcomes: class 1 = active, class 0 = inactive

> print(dat)
                                    compound  qualitative.label
 1  Cc1ccccc1N1C(=O)c2cc(S(N)(=O)=O)c(Cl)cc2NC1C (stereo unspecified)            class 0
 2  CC1Cc2ccccc2N1NC(=O)c1ccc(Cl)c(S(N)(=O)=O)c1 (stereo unspecified)            class 0
 3             O=C(Oc1ccccc1C(=O)O)c1ccccc1O            class 0
 4              O=C(Oc1cccc2cccnc12)c1ccccc1            class 0
 5  CC(=O)OCC(=O)[C@@]1(O)CCC2C3C[C@H](C)C4=CC(=O)C=CC4(C)C3[C@@H](O)CC21C (stereo partly specified)            class 0
 6  O=C(O)C1=CC(=C(c2ccc(O)c(C(=O)O)c2)c2ccc(O)c(C(=O)O)c2)C=CC1=O            class 0
 7  CC1(C)O[C@@H]2CC3C4C[C@H](F)C5=CC(=O)CC[C@]5(C)C4[C@@H](O)C[C@]3(C)[C@]2(C(=O)CO)O1 (stereo partly specified)            class 0
 8  CC1CCCC(C)N1NC(=O)c1ccc(Cl)c(S(N)(=O)=O)c1 (stereo unspecified)            class 1
 9  CC12CCC(=O)C=C1CCc1ccccc12 (stereo unspecified)            class 0
10  CC(C)(C)NCC(O)COc1cccc2c1CCCC2=O (stereo unspecified)            class 0
11          COc1cccc2c1CCC1=CC(=O)CC[C@@]12C            class 0

====

# normalized growth per record follows
- method.description: chemical genetic growth profiling, strain panel (AID 1159580);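 further: tested at 20 µM; growth read once vehicle control cultures reached saturation at 30 °C; 1 = growth at the plate median or of vehicle wells; lower values mean less growth of the strain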
- condition.details: S. cerevisiae deletion strains, growth OD, locus YPL031C, strain PHO85, active compounds read low
Among all 5,500 compounds or so, about 2,000 (36%) were called active. Not shown: some 18% with an inconclusive outcome. The list shows a part of the results.
measurement.type: normalized growth

> print(dat)
                                    compound            result
 1  O=C(Nc1cc2ccccc2s1)N1CCN(Cc2c(F)cccc2Cl)CC1  0.942 (inactive)
 2             CN(C)/C=C1\CSc2ccc(Cl)cc2C1=O  0.825 (inactive)
 3   COc1ccc(N=C2SCC(c3ccc(C)cc3)=NN2CCO)cc1  0.969 (inactive)
 4    COc1ccc(Br)c(C(=O)/C(C#N)=C/c2cccs2)c1    0.179 (active)
 5  Cc1ccc(Sc2ncccc2NS(=O)(=O)c2ccc(Cl)cc2)cc1  0.866 (inactive)
 6  CO/N=C1/CC(C)(C)Cc2c(-c3ccn(C(=O)Nc4cccc(Cl)c4)n3)sc(SC)c21   1.02 (inactive)
 7  Cc1ccc(OS(=O)(=O)c2c(Cl)sc(Cl)c2Br)c([N+](=O)[O-])n1  0.959 (inactive)
 8          O=C1OC(c2ccccc2)=C/C1=C/c1ccccc1  0.758 (inactive)
 9  OC(COCc1ccccc1)Cn1c2ccccc2c2ccccc21 (stereo unspecified)  0.845 (inactive)
10         C/C(=N/NC(N)=S)c1csc(-c2ccccc2)n1  0.776 (inactive)
11   CC(C)(C)NC(=S)N/N=C\c1cc(Br)c(O)c(Br)c1   0.92 (inactive)
